# tested-on: T1, Full-length STAT1 protein (unphosphorylated) (human, UniProt P42224 1-750)
# T1 construct: also called U-STAT1; pEXP-nHis-STAT1
# T1 sequence (looked up): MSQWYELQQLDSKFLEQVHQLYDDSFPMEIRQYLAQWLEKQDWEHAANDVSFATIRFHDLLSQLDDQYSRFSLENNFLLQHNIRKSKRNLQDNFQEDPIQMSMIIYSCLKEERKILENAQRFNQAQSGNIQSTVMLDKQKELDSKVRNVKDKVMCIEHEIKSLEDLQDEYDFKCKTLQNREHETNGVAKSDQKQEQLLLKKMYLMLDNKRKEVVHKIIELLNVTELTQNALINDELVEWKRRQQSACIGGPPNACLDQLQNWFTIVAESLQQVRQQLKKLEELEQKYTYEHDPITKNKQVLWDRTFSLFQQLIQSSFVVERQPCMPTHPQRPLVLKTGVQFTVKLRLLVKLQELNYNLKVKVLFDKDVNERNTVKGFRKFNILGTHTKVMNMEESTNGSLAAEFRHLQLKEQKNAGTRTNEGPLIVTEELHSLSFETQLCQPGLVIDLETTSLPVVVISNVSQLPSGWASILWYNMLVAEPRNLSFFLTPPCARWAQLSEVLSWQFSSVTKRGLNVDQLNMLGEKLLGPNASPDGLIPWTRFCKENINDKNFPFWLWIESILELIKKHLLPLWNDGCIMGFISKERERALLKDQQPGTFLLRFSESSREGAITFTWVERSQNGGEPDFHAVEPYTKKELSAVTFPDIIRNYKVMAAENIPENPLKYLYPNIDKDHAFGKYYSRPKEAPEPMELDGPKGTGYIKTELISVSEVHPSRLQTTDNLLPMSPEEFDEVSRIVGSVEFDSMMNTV
# measurement-notes: fluorescence polarisation
# test-parameters: both partners purified
metric: pIC50
Please keep in mind that pIC50 is minus log10 of the molar concentration; only the number is needed.

Fill in: pIC50 of GB1-018 (natural protein) MSSKGGSSGGMWSVFIHGHDGSNKGSKTYTSGGGGMWGGGSSSGVKSGVNGGVKSGTGKI is ___ 5.90

// query pIC50 value for entry MWSVFIHGHDGSNKGSK (domain or fragment) [GB1-018^T3] 4.75

Requested field: pIC50. Item: MWSVFIHGHDGSNKGSKTYTS (domain or fragment) [GB1-018^T2] 6.03
